Readings of Activity for the listed compounds
species on record: Homo sapiens; assay: Inhibition of r(CCUG)12-MBNL1 complex formation (unknown origin) assessed as rescue of IR exon 11 splicing defect at 5 uM by RT-PCR analysis; set-up: scale not given: the % may be the effect or the level left

entry_smiles	Activity
Cc1ccc2nc(Nc3ccc4nc(C)sc4c3)nc(NCCCO)c2c1	30%
Cc1ccc2nc(Nc3ccc4nc(NCC(C)(C)O)sc4c3)nc(NCCCO)c2c1	30%
OCCCNc1nc(Nc2ccc3c(c2)OCCO3)nc2ccccc12	50%

###

system: Fibroblast; assay: Cytotoxicity against DM2 patient derived fibroblast assessed as cell viability at 5 uM incubated for 48 hrs by Cell Titre-Glo assay; assay type: cell-based; conditions: human

entry_smiles	Activity
Cc1ccc2nc(Nc3ccc4nc(C)sc4c3)nc(NCCCO)c2c1	Non-Toxic
Cc1ccc2nc(Nc3ccc4nc(NCC(C)(C)O)sc4c3)nc(NCCCO)c2c1	Non-Toxic
Cc1ccc2nc(Nc3ccc4nc(N5CCOCC5)sc4c3)nc(NCCCO)c2c1	Toxic
Cc1ccc2nc(Nc3ccc4nc(-c5ccc(F)cc5)sc4c3)nc(NCCCO)c2c1	Toxic
Cc1ccc2nc(Nc3ccc4nc(NCCN(C)C)sc4c3)nc(NCCCO)c2c1	Non-Toxic
Cc1ccc2nc(Nc3ccc4nc(NCCN5CCOCC5)sc4c3)nc(NCCCO)c2c1	Toxic
Cc1ccc2nc(Nc3ccc4cnn(C)c4c3)nc(NCCCO)c2c1	Toxic
Cc1ccc2nc(Nc3ccc4nc(NC5CCN(Cc6ccccc6)CC5)sc4c3)nc(NCCCO)c2c1	Toxic
Cc1ccc2nc(Nc3ccc4nc(NCC(C)C)sc4c3)nc(NCCCO)c2c1	Toxic
Cc1ccc2nc(Nc3ccc4nc(N5CCN(C)CC5)sc4c3)nc(NCCCO)c2c1	Toxic
